target_or_system: Protease (Human immunodeficiency virus 1) (UniProt Q9YQ12)
Sequence (Q9YQ12 as listed by the source): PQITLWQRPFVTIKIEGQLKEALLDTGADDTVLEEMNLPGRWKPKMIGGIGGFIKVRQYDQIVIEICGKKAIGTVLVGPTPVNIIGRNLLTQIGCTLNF
measurement_description: Inhibition of HIV1 protease at 50 nM
*1 amine or outer side, *2 acyl side, *3 side chain or, on linkers, in order; H or OH if unused. Where a SMILES comes first, the peptide text is derived from it. [ ]: non-standard residue; d: D form. X1 = O=C([C@@H](O)[C@H](Cc1ccccc1)N[*:1])[*:2]
Each entry below carries its recorded inhibition.

Consider the worked cases shown below.
# compound, measure_name, test_value
measured = [
    ("CC[C@H](C)[C@H](NC(=O)[C@@H]1N(C(=O)[C@@H](O)[C@H](Cc2ccccc2)NC(=O)[C@@H](NC(=O)[C@@H](NC(C)=O)c2ccccc2)C(C)(C)C)CSC1(C)C)C(=O)N[C@@H](CCC(N)=O)C(N)=O", "inhibition", "98%"),
    ("CC(=O)N[C@H](C(=O)N[C@H](C(=O)N[C@@H](Cc1ccccc1)[C@H](O)C(=O)N1CSC(C)(C)C1C(=O)NCc1ccccc1C)C(C)(C)C)c1ccccc1 (some centres undefined)", "inhibition", "99%"),
    ("CC[C@H](C)[C@H](NC(C)=O)C(=O)N[C@H](C(=O)N[C@@H](Cc1ccccc1)[C@H](O)C(=O)N1CSC(C)(C)[C@@H]1C(=O)N[C@H](C(=O)N[C@@H](CCSC)C(N)=O)[C@@H](C)CC)[C@@H](C)CC", "inhibition", "98%"),
    ("CC[C@H](C)[C@H](NC(C)=O)C(=O)N[C@H](C(=O)N[C@@H](Cc1ccccc1)[C@H](O)C(=O)N1CSC(C)(C)[C@@H]1C(=O)N[C@H](C(=O)N[C@@H](C)C(N)=O)[C@@H](C)CC)[C@@H](C)CC", "inhibition", "82%"),
    ("CC[C@H](C)[C@H](NC(=O)[C@@H]1N(C(=O)[C@@H](O)[C@H](Cc2ccccc2)NC(=O)[C@@H](NC(=O)[C@@H](NC(C)=O)c2ccccc2)C(C)(C)C)CSC1(C)C)C(N)=O", "inhibition", "93%"),
    ("CC(=O)N[C@H](C(=O)N[C@H](C(=O)N[C@@H](Cc1ccccc1)[C@H](O)C(=O)N1CSC(C)(C)C1C(=O)NCC(C)(C)C)C(C)(C)C)c1ccccc1 (some centres undefined)", "inhibition", "99%"),
    ("CC[C@H](C)[C@H](NC(C)=O)C(=O)N[C@H](C(=O)N[C@@H](Cc1ccccc1)[C@H](O)C(=O)N1CSC(C)(C)[C@@H]1C(=O)N[C@H](C(=O)N[C@@H](CCSC)C(N)=O)[C@@H](C)CC)C(C)(C)C", "inhibition", "97%"),
    ("CC(=O)N[C@H](C(=O)N[C@H](C(=O)N[C@@H](Cc1ccccc1)[C@H](O)C(=O)N1CSC(C)(C)C1C(=O)NCc1cccc(I)c1)C(C)(C)C)c1ccccc1 (some centres undefined)", "inhibition", "97%"),
]

Looking up CSCC[C@H](NC(=O)[C@@H](NC(=O)[C@@H]1CCCN1C(=O)[C@@H](O)[C@H](Cc1ccccc1)NC(=O)[C@@H](NC(=O)[C@H](CCC(N)=O)NC(=O)[C@@H]1CCCN1)C(C)C)C(C)C)C(=O)N[C@@H](Cc1cnc[nH]1)C(=O)O (H-PQV[X1]PVMH-OH) , I found its inhibition recorded as < 30%

###

Reported pIC50 values for the following molecules.
target_or_system: Gag-Pro polyprotein (Human T-cell leukemia virus 1 (strain Japan ATK-1 subtype A) (HTLV-1), UniProt P10274, L40I)
Sequence (P10274 450-574 L489I): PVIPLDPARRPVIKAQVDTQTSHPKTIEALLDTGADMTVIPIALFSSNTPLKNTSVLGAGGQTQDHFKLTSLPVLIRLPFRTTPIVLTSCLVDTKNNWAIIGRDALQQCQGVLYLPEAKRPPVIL
measurement_description: Inhibition of HTLV1 protease L40I mutant expressed in Escherichia coli BL21(DE3)pLysS
Entry type: numeric. Quantity: pIC50, the -log10 of concentration in molar units.

# molecule, test_value
data = [
    ("CC(=O)N[C@H](C(=O)N[C@H](C(=O)N[C@@H](Cc1ccccc1)[C@H](O)C(=O)N1CSC(C)(C)C1C(=O)NCC(C)(C)C)C(C)(C)C)c1ccccc1 (stereo not given in full)", 6.95),
    ("C=CCNC(=O)C1N(C(=O)[C@@H](O)[C@H](Cc2ccccc2)NC(=O)[C@@H](NC(=O)[C@@H](NC(C)=O)c2ccccc2)C(C)(C)C)CSC1(C)C (stereo not given in full)", 6.88),
    ("C=C(C)CNC(=O)C1N(C(=O)[C@@H](O)[C@H](Cc2ccccc2)NC(=O)[C@@H](NC(=O)[C@@H](NC(C)=O)c2ccccc2)C(C)(C)C)CSC1(C)C (stereo not given in full)", 6.85),
]

# evaluate next
Entry `CC[C@H](C)[C@H](NC(C)=O)C(=O)N[C@H](C(=O)N[C@@H](Cc1ccccc1)[C@H](O)C(=O)N1CSC(C)(C)[C@@H]1C(=O)N[C@H](C(=O)N[C@@H](CCSC)C(N)=O)[C@@H](C)CC)C(C)(C)C` — recorded pIC50 = 6.84

###

target_or_system: Gag-Pro polyprotein (Human T-cell leukemia virus 1 (strain Japan ATK-1 subtype A) (HTLV-1), UniProt P10274, L40I)
measurement_description: Inhibition of HTLV1 protease L40I mutant expressed in Escherichia coli BL21(DE3)pLysS
*1 amine or outer side, *2 acyl side, *3 side chain or, on linkers, in order; H or OH if unused. Where a SMILES comes first, the peptide text is derived from it. [ ]: non-standard residue; d: D form. X1 = O=C([C@@H](O)[C@H](Cc1ccccc1)N[*:1])[*:2]; Thz(5,5-Me2) = CC1(C)SCN[C@@H]1C(=O)O
measure_name: IC50 (nM)
Value expressed in nM; do not type the unit.

# molecule, measure_name, test_value
measured = [
    ("CC[C@H](C)[C@H](NC(C)=O)C(=O)N[C@H](C(=O)N[C@@H](Cc1ccccc1)[C@H](O)C(=O)N1CSC(C)(C)[C@@H]1C(=O)N[C@H](C(=O)N[C@@H](CCSC)C(N)=O)[C@@H](C)CC)c1ccccc1", "IC50", 320),
    ("CC[C@H](C)[C@H](NC(=O)[C@@H]1N(C(=O)[C@@H](O)[C@H](Cc2ccccc2)NC(=O)[C@@H](NC(=O)[C@@H](NC(C)=O)[C@@H](C)CC)[C@@H](C)CC)CSC1(C)C)C(N)=O", "IC50", 249),
    ("CSCC[C@H](NC(=O)[C@@H](NC(=O)[C@H]1N(C(=O)[C@@H](O)[C@H](Cc2ccccc2)NC(=O)[C@@H](NC(=O)[C@H](CCC(N)=O)NC(C)=O)C(C)C)CSC1(C)C)C(C)C)C(N)=O (Ac-QV[X1][Thz(5,5-Me2)]VM-NH2)", "IC50", 353),
    ("CC(=O)N[C@H](C(=O)N[C@H](C(=O)N[C@@H](Cc1ccccc1)[C@H](O)C(=O)N1CSC(C)(C)C1C(=O)NCc1ccccc1C)C(C)(C)C)c1ccccc1 (stereo not given in full)", "IC50", 103),
]

Pending molecule:
molecule `CC[C@H](C)[C@H](NC(C)=O)C(=O)N[C@H](C(=O)N[C@@H](Cc1ccccc1)[C@H](O)C(=O)N1CSC(C)(C)[C@@H]1C(=O)N[C@H](C(=O)N[C@@H](C)C(N)=O)[C@@H](C)CC)[C@@H](C)CC` , IC50 observed: 160

###

target_or_system: Protease (Human immunodeficiency virus 1) (UniProt Q9YQ12)
measurement_description: Inhibition of HIV1 protease at 50 nM
Reported inhibition values are given for each entry in this list.

Please review the entries below; each comes with its answer.
# molecule, test_value
rows = [
    ("CC[C@H](C)[C@H](NC(=O)[C@@H]1N(C(=O)[C@@H](O)[C@H](Cc2ccccc2)NC(=O)[C@@H](NC(=O)[C@@H](NC(C)=O)c2ccccc2)C(C)(C)C)CSC1(C)C)C(=O)N[C@@H](CCSC)C(N)=O", "99%"),
    ("CC[C@H](C)[C@H](NC(C)=O)C(=O)N[C@H](C(=O)N[C@@H](Cc1ccccc1)[C@H](O)C(=O)N1CSC(C)(C)[C@@H]1C(=O)N[C@H](C(=O)N[C@@H](CCSC)C(N)=O)c1ccccc1)[C@@H](C)CC", "86%"),
]

Query `CC[C@H](C)[C@H](NC(=O)[C@@H](NC(C)=O)c1ccccc1)C(=O)N[C@@H](Cc1ccccc1)[C@H](O)C(=O)N1CSC(C)(C)[C@@H]1C(=O)N[C@H](C(=O)N[C@@H](CCSC)C(N)=O)[C@@H](C)CC` yields inhibition of 98%

Lab note: measured inhibition of CC(=O)N[C@H](C(=O)N[C@H](C(=O)N[C@@H](Cc1ccccc1)[C@H](O)C(=O)N1CSC(C)(C)C1C(=O)NCC(C)C)C(C)(C)C)c1ccccc1 (stereo not given in full) was > 99%

CC(=O)N[C@H](C(=O)N[C@H](C(=O)N[C@@H](Cc1ccccc1)[C@H](O)C(=O)N1CSC(C)(C)C1C(=O)NCC1CC1)C(C)(C)C)c1ccccc1 (stereo not given in full) has a reported inhibition of 99%
